System: DeltatarO mutant
Experiment: growth inhibition of S. aureus wild type versus tarO mutant, primary screen, teichoic acid synthesis inhibitors, RN4220, OD600 (AID 463173)
Settings: OD600, 18 h, stronger effect = lower value, concentration not given here
In all, about 52,000 compounds went through this assay and about 4,300 (8.3%) were called active. Many of the other results were omitted from the sample, so actives are more common in it than they were.
endpoint: survival (%)
Note: unit % is implicit; provide only the numeric part.

Query string: Provide survival value for the following molecule: `CN(C)c1ccc(NC(=O)c2sc3nc4c(cc3c2N)N2CCC4CC2)cc1`
Result string: 146

Query string: Provide survival value for the following molecule: `Cc1ccc(-n2c(/C=C/c3cccc(C(F)(F)F)c3)nc3ccccc3c2=O)cc1`
Result string: 72

Query string: Provide survival value for the following molecule: `Cc1cc(C=C(C#N)C#N)c(C)n1C1CCCC1`
Result string: 64

Query string: Provide survival value for the following molecule: `Nc1c(C(=O)Nc2ccc(Cl)c(C(F)(F)F)c2)sc2nc3c(cc12)N1CCC3CC1`
Result string: 4

Query string: Provide survival value for the following molecule: `O=C(Nc1nc2ccccc2s1)c1cccn(Cc2ccccc2)c1=O`
Result string: 83

Query string: Provide survival value for the following molecule: `Nc1c(C(=O)Nc2ccc(F)c(Cl)c2)sc2nc3c(cc12)N1CCC3CC1`
Result string: 65

Query string: Provide survival value for the following molecule: `Nc1c(C(=O)Nc2cccc(Br)c2)sc2nc3c(cc12)N1CCC3CC1`
Result string: 40

Query string: Provide survival value for the following molecule: `Cc1ccc(-n2c(/C=C/c3cccc4ccccc34)nc3ccccc3c2=O)cc1`
Result string: 77

Query string: Provide survival value for the following molecule: `N#Cc1cc(F)c(N2CCNCC2)cc1Cl`
Result string: 74

Query string: Provide survival value for the following molecule: `N#Cc1cc2c(nc1SCC(=O)Nc1ccc(F)c(Cl)c1)C1CCN2CC1`
Result string: -2

Query string: Provide survival value for the following molecule: `Cc1cccc(Cn2cccc(C(=O)Nc3cc(C)on3)c2=O)c1`
Result string: 73

----------
Test system: DeltatarO mutant
Assay: growth inhibition of S. aureus wild type versus tarO mutant, primary screen, teichoic acid synthesis inhibitors, RN4220, OD600 (AID 463173)
Conditions: OD600, 18 h, concentration not given here
Screen size: about 52,000 compounds; about 4,300 (8.3%) were called active. Cut-off read from the data, not from the text of the source: active = survival mostly below about 52% (no sharp cut-off); inactive = mostly above about 56%. Shown is part of a subset that was picked to be rich in actives.
Answer with one of the outcomes True for active, False for inactive

Query string: Lab log entry: `CC(C)c1ccc(OCC(=O)N2CCN(CCc3ccccn3)CC2)cc1` — outcome as called in the assay?
Result string: False

Query string: Lab log entry: CCc1ccc(-n2nc(C)c3c2NC(=O)CSC3c2ccc(OC)cc2OC)cc1 (stereo not given) — outcome as called in the assay?
Result string: False

Query string: Lab log entry: `O=C(Cn1cc(C(=O)c2ccccc2)c2ccccc21)Nc1ccc(Br)cc1` — outcome as called in the assay?
Result string: False

Query string: Lab log entry: `COc1ccc(-c2nc(CN3C(=O)CN=C(c4ccccc4Cl)c4cc(Cl)ccc43)c(C)o2)cc1OC` — outcome as called in the assay?
Result string: False

Query string: Lab log entry: `COc1ccc(OC)c(NC(=O)Cn2cc(C(=O)c3ccccc3F)c3ccccc32)c1` — outcome as called in the assay?
Result string: True

Query string: Lab log entry: CCCOc1ccc(C2SCC(=O)Nc3c2c(C)nn3-c2cccc(C)c2)cc1OC (stereo not given) — outcome as called in the assay?
Result string: True

Query string: Lab log entry: COc1ccccc1C1SCC(=O)Nc2c1c(C)nn2-c1cccc(C)c1 (stereo not given) — outcome as called in the assay?
Result string: True

Query string: Lab log entry: `CCOc1ccc2nc(NC(=O)c3cccn(Cc4ccccc4)c3=O)sc2c1` — outcome as called in the assay?
Result string: False

Query string: Lab log entry: COc1ccc2c(c1OC)C(=O)OC2C1c2cc3c(cc2CCN1C)OCO3 (stereo not given) — outcome as called in the assay?
Result string: False

Query string: Lab log entry: `COc1ccccc1CN1CCN(C(=O)COc2cccc(C)c2)CC1` — outcome as called in the assay?
Result string: False
